// data source = patent US20200317802A1

// values below are reported koff
- Assayed Target: T1, recombinant human ADAMTS5 (R&D Systems cat #2198-AD) (human, UniProt Q9UNA0 262-622, limits assumed)
- T1 construct: bought protein
- T1 sequence: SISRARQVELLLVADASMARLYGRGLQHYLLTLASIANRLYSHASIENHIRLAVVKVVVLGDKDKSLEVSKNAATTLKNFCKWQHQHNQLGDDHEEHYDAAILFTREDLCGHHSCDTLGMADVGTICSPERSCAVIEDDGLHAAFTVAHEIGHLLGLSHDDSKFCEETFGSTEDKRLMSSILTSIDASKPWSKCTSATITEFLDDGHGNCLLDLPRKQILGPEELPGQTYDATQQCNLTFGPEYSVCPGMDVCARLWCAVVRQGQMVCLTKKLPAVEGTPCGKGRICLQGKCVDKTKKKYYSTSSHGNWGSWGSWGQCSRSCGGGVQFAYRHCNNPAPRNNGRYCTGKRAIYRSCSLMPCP
- Test: SPR off-rate, Biacore T100, ADAMTS5 immobilised, experiment 2
- Description: Species cross-reactivity was initially evaluated via SPR-based off-rate analysis on a Biacore T100 instrument. Nanobodies were tested for binding to human, cynomolgus monkey (“cyno”), guinea pig, mouse, and bovine ADAMTS5. […] Off-rate for each individual Nanobody was determined by fitting a 1:1 interaction model (Langmuir model) onto the individual dissociation curves using the BIA Evaluation software. As a reference, off-rates on human ADAMTS5 were determined in each experiment.
Units required after the number.

INSERT INTO assay_data (binder, reported_measurement) VALUES
  ('Nanobody 2A12 (VHH, tagged as tested (anti-Flag detection, IMAC); also called 02A12) VHH: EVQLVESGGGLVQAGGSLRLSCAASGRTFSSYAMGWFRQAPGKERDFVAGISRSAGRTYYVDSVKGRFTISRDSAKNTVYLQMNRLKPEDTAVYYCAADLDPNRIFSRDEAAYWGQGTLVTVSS', '0.00023 s⁻¹'),
  ('Nanobody 9D03 (VHH, tagged as tested (anti-Flag detection, IMAC); also called 09D03; 9D3) VHH: EVQLVESGGGLVQSGGSLRLSCAASGSAVSVNAMAWYRQAPGKQRDFVAGISRSAGRTYYTDSVKDRFTIARDSAKNTVYLQMNRLKPEDTAVYYCAADLDPNRIFSRDEAAYWGQGTLVTVSS', '0.0012 s⁻¹'),
  ('Nanobody 2F03 (VHH, tagged as tested (anti-Flag detection, IMAC); also called 02F03; 2F3) VHH: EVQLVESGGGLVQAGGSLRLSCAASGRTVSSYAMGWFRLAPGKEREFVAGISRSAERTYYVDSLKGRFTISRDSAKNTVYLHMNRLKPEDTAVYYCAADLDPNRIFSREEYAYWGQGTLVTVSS', '6.5e-05 s⁻¹');

Let's switch to this binder now.
Ask | In one line, give reported koff of the entry Nanobody 3B02 (VHH, tagged as tested (anti-Flag detection, IMAC); also called 03B02; 3B2) VHH: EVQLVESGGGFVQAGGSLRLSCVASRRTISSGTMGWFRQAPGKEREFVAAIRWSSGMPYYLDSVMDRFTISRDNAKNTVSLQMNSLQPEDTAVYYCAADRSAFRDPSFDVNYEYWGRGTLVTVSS .
Reply | 0.00085 s⁻¹
